- subject-of-test: muscarinic acetylcholine receptors
- assay-comment: Inhibition of specific binding of 3H-Oxotremorine-M (OXO BINDING) in vitro, rat cortex
- Set-up: species or system male Wistar rats
- applied-conditions: rat cortex homogenate, 3H-Oxotremorine 1.0 nM, 30 min at 25° C., pH 7.4
Class YES: Inhibition in vitro OXO BINDING IC50 at least 1 ng/mL. Class NO: Inhibition in vitro OXO BINDING IC50 below 1 ng/mL.

Please check the record N#Cc1ccc(CSc2nsnc2[C@H]2CN3CCC[C@@H]2C3)cc1 (relative stereo) [Compound 28] and state if its Inhibition in vitro OXO BINDING IC50 is at or above 1 ng/mL.
YES

Now consider CCCOc1nsnc1[C@@H]1CN2CCC[C@@H]1C2 (relative stereo) [Compound 119] and answer again.
NO

Entry N#CCCSc1nsnc1[C@H]1CN2CCC[C@H]1C2 (relative stereo) [Compound 80] please
NO

Repeat for the following compound: CCCCOc1nsnc1C1=CC2CCCN(C1)C2.O=C(O)C(=O)O (centres unmarked) [Compound 95]
YES

Also check CCCCSc1nsnc1[C@H]1CN2CC[C@H]1C2 (relative stereo) [Compound 42]
NO

Try this compound next: CCOc1nsnc1[C@@H]1CN2CCC[C@@H]1C2 (relative stereo) [Compound 118]
NO

Then this compound: Clc1nsnc1C12CCCN(CC1)C2.O=C(O)C(=O)O (centres unmarked) [Compound 67]
NO

Further, for N#CCCCCSc1nsnc1[C@H]1CN2CCC[C@@H]1C2 (relative stereo) [Compound 92] ?
YES

Check CC(C)CCCSc1nsnc1[C@H]1CN2CCC[C@H]1C2 (relative stereo) [Compound 76] too.
YES

Now the same for CCCCCCCSc1nsnc1C1CN2CCC1CC2.O=C(O)/C=C/C(=O)O (centres unmarked) [Compound 54]
YES

Cool, now CCCSc1nsnc1[C@@H]1CN2CCC[C@@H]1C2 (single isomer, unassigned) [Compound 114]
NO

Same lookup for c1ccc2sc(SCCCCSc3nsnc3C3CN4CCC3CC4)nc2c1 (centres unmarked) [Compound 108] , please.
YES

Another compound to look at: CCCCCCCSc1nsnc1[C@H]1CN2CCC[C@H]1C2 (relative stereo) [Compound 75]
NO

###

- subject-of-test: muscarinic acetylcholine receptors
- assay-comment: Inhibition of specific binding of 3H-Oxotremorine-M (OXO BINDING) in vitro, rat cortex
- Design: species or system male Wistar rats
- applied-conditions: rat cortex homogenate, 3H-Oxotremorine 1.0 nM, 30 min at 25° C., pH 7.4
measurement-label: Inhibition in vitro OXO BINDING IC50 (ng/mL)
Return type: number; implicit unit ng/mL.

Fill blank: measured Inhibition in vitro OXO BINDING IC50 of the molecule CCC=CCCOc1nsnc1C1CN2CCC1CC2.O=C(O)/C=C/C(=O)O (stereo not shown) is ____.
0.33

Now consider CCCCS(=O)(=O)c1nsnc1[C@@H]1CN2CCC[C@@H]1C2 (relative stereo) and answer again.
0.50

# iterate: CCCCCSc1nsnc1[C@H]1CN2CCC[C@H]1C2 (relative stereo)
0.6
